Each recorded value in this set is attributed to PubChem BioAssay.

Experiment: binders of probe aFST on microarray, primary screen, stem cell growth factor project, biochemical, small-molecule microarray, fluorescence 635/667 (AID 1086);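 further: score merges 667 nm fluorescence with signal-to-noise of each printed compound spot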
Conditions: higher = more signal
Please note: Y applies when composite z-score is 0.3 or greater, and N applies otherwise.

- CC(C)C[C@@H]1NC(=O)[C@H]2C[C@@H](C(=O)NCCCCCC[N+](C)(C)C)[C@@H](c3ccc(O)cc3)N2C1=O: N
- CCOC(=O)C[C@H]1[C@H](OC(=O)c2ccccc2-c2ccccc2)[C@@H](NC(=O)C2CCCCC2)c2cc(OCCCO)ccc2N1C(=O)c1ccccc1: N
- CC(C)=C1C(=O)C(c2ccccc2)=C2CN3C(=O)N(CCc4ccccc4)C(=O)[C@]3(Cc3ccccc3)[C@H]21: N
- C=CC[C@]1(C(N)=O)N=C(c2ccc(OCCCO)cc2)O[C@H]1c1ccccc1CN=[N+]=[N-]: Y
- C=CCOC(=O)[C@@H]1[C@H]2C(=O)O[C@H](c3ccccc3)[C@H](c3ccccc3)N2[C@H](c2ccc(OCCOC(=O)[C@H]3C[C@H]4C(=O)N5CCC[C@H]5C(=O)N4[C@H]3c3ccc(O)cc3)cc2)[C@@]12C(=O)Nc1ccccc12: N

[ask] Identify whether the reported composite z-score of the following compound is 0.3 or greater: CCOC(=O)C1=CCC(c2cccc3ccccc23)N(S(=O)(=O)c2ccc(C)cc2)C1 (configuration not stated)
[reply] Y

[ask] Identify whether the reported composite z-score of the following compound is 0.3 or greater: "Cc1ccc(S[C@]2(C(=O)NCCN3CCOCC3)CC(=O)N(C3Cc4ccccc4C3)[C@@H]2c2ccc(CO)cc2I)cc1"
[reply] Y
